# Assay comment: Inhibition of TNF-alpha inducible Vascular cell adhesion molecule-1 expression.
Quantity: IC50

Entry CC(C)(Sc1cc(C(C)(C)C)c(O)c(C(C)(C)C)c1)Sc1cc(C(C)(C)C)c(O)c(C(C)(C)C)c1 ; IC50 = > 50 µM

CC(C)(Sc1cc(C(C)(C)C)c(OC(=O)CCC(=O)O)c(C(C)(C)C)c1)Sc1cc(C(C)(C)C)c(OC(=O)CCC(=O)O)c(C(C)(C)C)c1 yielded IC50 of > 50 µM

The recorded IC50 for CC(C)(Sc1cc(C(C)(C)C)c(O)c(C(C)(C)C)c1)Sc1cc(C(C)(C)C)c(OC(=O)C(=O)O)c(C(C)(C)C)c1 is > 50 µM
